Listed here are compounds together with their documented viability at 28.5 h, 10 µM.
Assay: in vitro
Settings: human, hela cells, % viability
The reply should contain only the number, in %.

# count of solved cases: 6
CCNC(=O)CN(C)S(=O)(=O)c1cc(Cl)ccc1Cl : 94.1
O=C(CNS(=O)(=O)c1ccc(Br)cc1)N1CCN(Cc2ccc3c(c2)OCO3)CC1 : 98.1
O=C(NCC1(O)CCSCC1)c1ccc2ccccc2n1 : 85
CC(C)(CNS(=O)(=O)c1ccc(Cl)cc1)OCc1ccccc1 : 91.4
O=C(COc1ccc2ccccc2c1)N1CCN(S(=O)(=O)c2ccccc2[N+](=O)[O-])CC1 : 91.8
CCCNC(=O)Cn1cnc2sc(C)c(C)c2c1=O : 88.8

Now look at this one.
Query: Given the entry COc1cc(CNC(C)(C)CO)ccc1OCc1ccc(Cl)cc1 [CBK266433C] , report its measured viability at 28.5 h, 10 µM.
Response: 92
